# assay_summary: Tanguay_ZF_120hpf_CFIN_legacy: (Legacy) Oregon State University Tanguay Lab 120 Hour Post-fertilization zebrafish Assay for Caudal Fin Malformation (AID 2283649)
Results filed as inconclusive are left out. Calls of active or inactive are those of the source. The calls were made as follows: active = hit-call score of the fitted dose curve at least 0.9, where 1 is the maximum; inconclusive = response in the unintended direction; inactive = score below 0.9.
Select the matching outcome among t = active, f = inactive

Consider the worked cases shown below.
| mol | assigned_category |
| --- | --- |
| CN(C)C=O | f |
| Oc1cc2ccccc2c2ccccc12 | t |
| CCCCCCCCC(=O)O | f |

Problem: Could you please tell me the result logged for C#C[C@]1(O)CC[C@H]2[C@@H]3CCC4=CC(=O)CC[C@@H]4[C@H]3CC[C@@]21C in this assay?
Solution: f

Problem: In this assay, the call recorded for OCCC(F)(F)C(F)(F)C(F)(F)C(F)(F)C(F)(F)C(F)(F)F was what?
Solution: f

Problem: Check the results log: what was the call for NC(=O)N(O)[C@@H]1C=C[C@H](Oc2cccc(Oc3ccc(F)cc3)c2)C1 ?
Solution: f

Problem: Dear all, I need the recorded test outcome for CCCCCCCCOC(=O)CCCCCCCCC(=O)OCCCCCCCC , thank you.
Solution: f

All values here come from PubChem BioAssay (EPA / NIEHS).
